System: ABCA1 protein
experiment.summary: Detection of upregulation of ABCA1 protein in THP-1 macrophage cells (ApoA-I binding, high content imaging)
Format: cell-based
condition.notes: 24 hrs with compound, AlexaFluor 647 ApoA-I binding, read-out: ABCA1 protein increasing efficacy EC50
Method: The ability of compounds of the invention to increase the level of ABCA1 protein is determined in replicate cultures of THP-1 macrophage cells in 96-well microplates. […] Fixed stained cells are washed and kept in PBS at 4° C. and can be read immediately until one month after preparation. […]
Binarize EC50 at 2000 nM; below is criterion met, at or above is criterion not met.

// below: answered compounds
>>> df
                              sample_smiles          class
0  CC(C)c1nc(CNC(=O)c2cnc(OCC(F)(F)F)c(-c3ccc(Cl)cc3)c2)cs1  criterion met
1  COc1cc(CNC(=O)c2cnc(O[C@@H](C)C(F)(F)F)c(-c3ccc(Cl)cc3)n2)on1  criterion met
2  CC(C)c1cc(CNC(=O)c2cc(-c3ccc(Cl)cc3)c(OCC(F)(F)F)nn2)no1  criterion met
3  Cc1cc(-c2cc(C(=O)NCc3csc(C4CC4)n3)ncc2OCC(F)(F)F)ccc1Cl  criterion met

Ask | Regarding O=C(NCc1cc(C2CC2)on1)c1cc(-c2ccc(Cl)cc2)c(OCC(F)(F)F)cn1 , kindly confirm whether its EC50 is beneath 2000 nM.
Reply | criterion met

Ask | Regarding O=C(NCc1cc(C(F)(F)F)no1)c1cc(-c2ccc(Cl)cc2)c(OCC(F)(F)F)nn1 , kindly confirm whether its EC50 is beneath 2000 nM.
Reply | criterion met

Ask | Regarding CC(C)c1nc(CNC(=O)c2cc(-c3ccc(Cl)cc3)c(OCC(F)(F)F)cn2)cs1 , kindly confirm whether its EC50 is beneath 2000 nM.
Reply | criterion not met

Ask | Regarding COc1cc(CNC(=O)c2cnc(OCC(F)(F)F)c(-c3ccc(Cl)cc3)c2)on1 , kindly confirm whether its EC50 is beneath 2000 nM.
Reply | criterion not met

---

test.system: human CB2 receptor (Homo sapiens)
Construct: expressed in transfected cells; host or cells: human embryonic kidney (HEK) cells, Semliki Forest Virus system, membrane preparations
Sequence (P34972 whole entry): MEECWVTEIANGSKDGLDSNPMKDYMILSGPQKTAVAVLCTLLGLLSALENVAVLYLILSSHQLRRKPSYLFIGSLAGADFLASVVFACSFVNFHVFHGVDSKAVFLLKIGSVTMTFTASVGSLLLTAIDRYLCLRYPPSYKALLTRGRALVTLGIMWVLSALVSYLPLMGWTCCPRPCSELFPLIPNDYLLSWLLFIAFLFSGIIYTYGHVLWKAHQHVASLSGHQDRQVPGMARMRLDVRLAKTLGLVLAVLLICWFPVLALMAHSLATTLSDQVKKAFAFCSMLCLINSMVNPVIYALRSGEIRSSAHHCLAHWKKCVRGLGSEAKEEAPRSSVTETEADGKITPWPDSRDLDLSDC
experiment.summary: CB2 receptor affinity, [3H]-CP-55,940 displacement, HEK cell membranes
Format: binding
condition.notes: 10 μM compound, radioligand [3H]-CP-55,940
reported.property: inhibition at 10 µM (%)
Answers are plain numbers, in %.

Report inhibition at 10 µM for each item below.
1. O=C(NCc1nc(C(F)(F)F)no1)c1cnc(OCCO)c(-c2ccc(Cl)cc2)c1
2. COc1cc(CNC(=O)c2cnc(OCC(F)(F)F)c(-c3ccc(Cl)c(F)c3)c2)on1
3. COc1cc(CNC(=O)c2cnc(OCC(F)(F)F)c(-c3ccc(F)c(F)c3)c2)on1
4. COc1cc(CNC(=O)c2cc(-c3ccc(Cl)cc3)c(OCC(F)(F)F)cn2)on1
5. O=C(NCc1ccccn1)c1cnc(OC2CCC2)c(-c2ccc(Cl)cc2)c1
6. O=C(NCc1ccn(CC2CC2)n1)c1cnc(OCC(F)(F)F)c(-c2ccc(Cl)cc2)c1
7. Cc1ccc(-c2cc(C(=O)NCc3nc(C(F)(F)F)no3)cnc2OCC(F)(F)F)cc1

Reply |
1: -4; 2: 9; 3: 9; 4: 28; 5: 37; 6: 11; 7: 4

Report inhibition at 10 µM for each item below.
1. Cc1noc(CNC(=O)c2cnc(OCC(F)(F)F)c(-c3ccc(Cl)cc3)c2)n1
2. CCc1nc(CNC(=O)c2cnc(OCC(F)(F)F)c(-c3ccc(Cl)cc3)c2)cs1
3. O=C(NCc1nc(C(F)(F)F)no1)c1cnc(OC[C@H]2CCOC2)c(-c2ccc(Cl)cc2)c1 (stereo in doubt)
4. O=C(NCc1nc(C(F)(F)F)no1)c1cc(-c2ccc(Cl)cc2)c(OCC2CC2)nn1
5. C[C@H](Oc1ncc(C(=O)NCc2ccccn2)nc1-c1ccc(Cl)cc1)C(F)(F)F
6. Cc1cc(-c2cc(C(=O)NCc3nc(C(F)(F)F)no3)cnc2OCC(F)(F)F)ccc1Cl

Reply |
14
6
9
34
40
-1

---

test.system: human CB2 receptor (Homo sapiens)
Construct: expressed in transfected cells; host or cells: human embryonic kidney (HEK) cells, Semliki Forest Virus system, membrane preparations
experiment.summary: CB2 receptor affinity, [3H]-CP-55,940 displacement, HEK cell membranes
Type: binding
condition.notes: 10 μM compound, radioligand [3H]-CP-55,940
reported.property: inhibition at 10 µM (%)
Answers are plain numbers, in %.

                              sample_smiles  obs_value
0  CC(C)c1nc(CNC(=O)c2cc(-c3ccc(Cl)cc3)c(OCC(F)(F)F)cn2)cs1         15
1  COCCOc1ncc(C(=O)NCc2nc(C(F)(F)F)no2)cc1-c1ccc(Cl)c(F)c1         25
2  O=C(NCc1cc(C(F)(F)F)no1)c1cnc(OCC(F)(F)F)c(-c2ccc(Cl)cc2)c1         -2

Report inhibition at 10 µM for each item below.
1. CCCn1ccc(CNC(=O)c2cnc(OCC(F)(F)F)c(-c3ccc(Cl)cc3)c2)n1
2. CC(C)c1nc(CNC(=O)c2cnc(OCC(F)(F)F)c(-c3ccc(Cl)cc3)c2)cs1
3. COc1cc(CNC(=O)c2cnc(OCC(F)(F)F)c(-c3ccc(Cl)cc3)c2)on1

Reply |
1. 12
2. 10
3. 5

---

Tested on: ABCA1 protein
experiment.summary: Detection of upregulation of ABCA1 protein in THP-1 macrophage cells (ApoA-I binding, high content imaging)
Assay type: cell-based
condition.notes: 24 hrs with compound, AlexaFluor 647 ApoA-I binding, read-out: ABCA1 protein increasing efficacy EC50
pEC50: −log10 of the molar value.
Threshold check on pEC50: at or above 6 gives Fulfilled, strictly below gives Not fulfilled.

// below: answered compounds
In [3]: df
Out[3]:
                              sample_smiles          class
0  O=C(NCc1nc(C(F)(F)F)no1)c1cnc(OC2CCC2)c(-c2ccc(F)c(F)c2)c1      Fulfilled
1  O=C(NCc1nc(C(F)(F)F)no1)c1ccc(OCC(F)(F)F)c(-c2ccc(Cl)cc2)n1  Not fulfilled

Let us examine a further case.
Ask | Say whether CC(C)c1cc(CNC(=O)c2cnc(OCC(F)(F)F)c(-c3ccc(Cl)cc3)c2)no1 shows pEC50 of 6 or more.
Reply | Fulfilled

---

test.system: human CB1 receptor (Homo sapiens)
Construct: expressed in transfected cells; host or cells: human embryonic kidney (HEK) cells, Semliki Forest Virus system, membrane preparations
Sequence (P21554 whole entry): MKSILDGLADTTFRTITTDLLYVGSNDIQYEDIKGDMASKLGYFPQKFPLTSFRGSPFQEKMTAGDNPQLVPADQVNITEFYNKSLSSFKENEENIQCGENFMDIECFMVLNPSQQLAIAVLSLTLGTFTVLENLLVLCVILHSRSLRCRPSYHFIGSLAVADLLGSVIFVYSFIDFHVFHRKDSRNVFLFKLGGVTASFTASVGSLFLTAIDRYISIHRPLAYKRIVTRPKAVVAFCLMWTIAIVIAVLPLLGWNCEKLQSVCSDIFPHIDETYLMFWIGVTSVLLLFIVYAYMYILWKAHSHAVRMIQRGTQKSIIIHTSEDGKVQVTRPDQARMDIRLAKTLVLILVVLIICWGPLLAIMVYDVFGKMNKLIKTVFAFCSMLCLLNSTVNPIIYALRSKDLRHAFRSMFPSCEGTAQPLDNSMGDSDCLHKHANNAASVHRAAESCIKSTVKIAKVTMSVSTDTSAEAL
experiment.summary: CB1 receptor affinity, [3H]-CP-55,940 displacement, HEK cell membranes
Format: binding
condition.notes: 10 μM compound, radioligand [3H]-CP-55,940; read-out: CB1 receptor affinity [% inhibition @ 10 μM]
Answer each item with its documented inhibition at 10 µM.
// unit must come after the numeric part

Solved entries:
                              sample_smiles  obs_value
0  CCc1nc(CNC(=O)c2cnc(OCC(F)(F)F)c(-c3ccc(Cl)cc3)c2)cs1        22%
1  O=C(NCc1noc(C(F)(F)F)n1)c1cnc(OCC(F)(F)F)c(-c2ccc(Cl)cc2)c1        43%
2  O=C(NCc1nc(C(F)(F)F)no1)c1cnc(OC2CCC2)c(-c2ccc(F)c(F)c2)c1        23%
3  Cn1cc(Cl)c(CNC(=O)c2cnc(OCC(F)(F)F)c(-c3ccc(Cl)cc3)c2)n1        40%
4  CCc1ccc(-c2cc(C(=O)NCc3nc(C(F)(F)F)no3)cnc2OCC(F)(F)F)cc1        44%
5  C[C@H](Oc1ncc(C(=O)NCc2nc(C(F)(F)F)no2)nc1-c1ccc(Cl)cc1)C(F)(F)F        36%
6  COCCOc1ncc(C(=O)NCc2nc(C(F)(F)F)no2)cc1-c1ccc(F)c(F)c1        45%
7  COc1cc(CNC(=O)c2cc(-c3ccc(Cl)cc3)c(OCC(F)(F)F)nn2)on1        18%
8  O=C(NCc1nc(C(F)(F)F)no1)c1cnc(OCC(F)(F)F)c(-c2ccc3nonc3c2)c1        15%
9  C[C@H](Oc1cnc(C(=O)NCc2cc(C(F)(F)F)no2)nc1-c1ccc(Cl)cc1)C(F)(F)F        45%

Report inhibition at 10 µM for each item below.
1. O=C(NCc1noc(C2CC2)n1)c1cc(-c2ccc(Cl)cc2)c(OCC(F)(F)F)nn1
2. C[C@H](Oc1ncc(C(=O)NCc2ccccn2)nc1-c1ccc(Cl)cc1)C(F)(F)F
3. O=C(NCc1nc(C2CC2)no1)c1cc(-c2ccc(Cl)cc2)c(OCC(F)(F)F)nn1
4. O=C(NCc1nc(C(F)(F)F)no1)c1cc(-c2ccc(Cl)cc2)c(OCC2CC2)cn1

Reply |
23%
34%
35%
28%

Report inhibition at 10 µM for each item below.
1. O=C(NCc1nc(C(F)(F)F)no1)c1cnc(OCC(F)(F)F)c(-c2ccc(Cl)cc2)c1
2. Cc1cc(-c2cc(C(=O)NCc3nc(C(F)(F)F)no3)cnc2OC2CCC2)ccc1Cl
3. C[C@H](Oc1ncc(C(=O)NCc2nc(C(F)(F)F)no2)cc1-c1ccc(Cl)cc1)C(F)(F)F
4. Cc1ccc(-c2cc(C(=O)NCc3nc(C(F)(F)F)no3)ncc2OCC(F)(F)F)cc1C

Reply |
45%
19%
32%
17%
